# Test system: MCF7
# EXPERIMENT_NOTES: Cytotoxicity against human MCF7 cells assessed as growth inhibition after 48 hrs by MTT assay
# Type: functional, cell-based
# CONDITION: MCF7, 48 h
Listed here are compounds together with their documented IC50.
MEASURED_ENDPOINT: IC50 (µM)

COMPOUND	MEASURED_ON	UNITS_TEXT	MEASUREMENT_QUALIFIER	RECORDED_NUMBER
c1ccc(C[n+]2ccn(C(c3ccccc3)c3cc4ccccc4o3)c2)cc1 (stereo not given)	MCF7	µM	>	40
O=C(C[n+]1cn(C(c2ccccc2)c2cc3ccccc3o2)c2ccccc21)c1ccccc1 (stereo not given)	MCF7	µM	=	9.59
C=CC[n+]1ccn(C(c2ccccc2)c2cc3ccccc3o2)c1 (stereo not given)	MCF7	µM	>	40
CCCC[n+]1ccn(C(c2ccccc2)c2cc3ccccc3o2)c1 (stereo not given)	MCF7	µM	>	40
O=C(C[n+]1ccn(C(c2ccccc2)c2cc3ccccc3o2)c1)c1ccc(F)cc1 (stereo not given)	MCF7	µM	>	40
CCc1n(C(c2ccccc2)c2cc3ccccc3o2)cc[n+]1CC(=O)c1ccc2ccccc2c1 (stereo not given)	MCF7	µM	=	4.2
Cc1n(C(c2ccccc2)c2cc3ccccc3o2)cc[n+]1CC(=O)c1ccccc1 (stereo not given)	MCF7	µM	=	10.2
O=C(C[n+]1cn(C(c2ccccc2)c2cc3ccccc3o2)c2ccccc21)c1ccc2ccccc2c1.[Br-] (stereo not given)	MCF7	µM	=	3.13
Cc1n(C(c2ccccc2)c2cc3ccccc3o2)cc[n+]1CC(=O)c1ccc(Br)cc1 (stereo not given)	MCF7	µM	=	15.2
CCCC[n+]1cn(C(c2ccccc2)c2cc3ccccc3o2)c2ccccc21 (stereo not given)	MCF7	µM	=	15.4
